target: bovine cardiac myofibrils (full-length cardiac myosin ATPase in the native sarcomere) (Bos taurus (Bovine)); assay: Skinned bovine cardiac myofibril ATPase assay (PK/LDH-coupled); settings: Ca2+ activating to 75% of maximal rate, read-out: CDMF75 IC50
// assign condition met if IC50 falls strictly below 7 µM, else condition not met (ties count as condition not met)

hey, is IC50 for "O=C1CC[C@@H](C(=O)N[C@@H]2CCc3cc(-c4noc(C5CC5)n4)ccc32)N1" lower than 7 µM or not?
condition not met

hey, is IC50 for "O=C(N[C@@H]1COc2cc(-c3noc(C(F)F)n3)ccc21)C(F)F" lower than 7 µM or not?
condition not met

hey, is IC50 for "Cn1cc(C(=O)N[C@@H]2CCc3cc(-c4noc(CCO)n4)ccc32)cn1" lower than 7 µM or not?
condition not met

hey, is IC50 for Cn1cncc1C(=O)NC1CCc2cc(-c3noc(C(F)F)n3)ccc21 (stereo not drawn) lower than 7 µM or not?
condition met

hey, is IC50 for Cc1cc(C(=O)NC2CCc3cc(-c4noc(C(F)F)n4)ccc32)cnn1 (stereo not drawn) lower than 7 µM or not?
condition not met

hey, is IC50 for "CC(C)c1nc(-c2ccc3c(c2)CC[C@H]3NC(=O)c2cnn(C)c2)no1" lower than 7 µM or not?
condition met

hey, is IC50 for "Cc1nc(-c2ccc3c(c2)OC[C@H]3NC(=O)c2cn(C)nc2C)no1" lower than 7 µM or not?
condition met

hey, is IC50 for "CC(=O)N[C@@H]1CCc2cc(-c3noc(C)n3)ccc21" lower than 7 µM or not?
condition not met

---

Answer each item with its documented CDMF75 IC15.
biological target: bovine cardiac myofibrils (full-length cardiac myosin ATPase in the native sarcomere) (Bos taurus (Bovine)); test: Skinned bovine cardiac myofibril ATPase assay (PK/LDH-coupled); format: biochemical; conditions: Ca2+ activating to 75% of maximal rate, concentration giving 15% inhibition
Answer format: numeric, nM implied, no suffix.

Recorded CDMF75 IC15 of Cc1cc(C(=O)NC2CCc3cc(-c4noc(C(F)F)n4)ccc32)ccn1 (centres unmarked) [Compound 5] , please.
1140

Recorded CDMF75 IC15 of O=C(N[C@@H]1CCc2cc(-c3noc(C(F)F)n3)ccc21)c1cc(CO)ccn1 [Compound 667] , please.
900

Recorded CDMF75 IC15 of Cc1ncccc1C(=O)NC1CCc2cc(-c3noc(C(F)F)n3)ccc21 (centres unmarked) [Compound 39] , please.
31000

Recorded CDMF75 IC15 of Cc1cc(C(=O)N[C@@H]2CCc3cc(-c4cnc(C)o4)ccc32)ccn1 [Compound 135] , please.
39200

Recorded CDMF75 IC15 of CC(C)NC(=O)NC1CCc2cc(-c3noc(C(F)F)n3)ccc21 (centres unmarked) [Compound 14] , please.
39200

Recorded CDMF75 IC15 of CCc1nc(-c2ccc3c(c2)CC[C@H]3NC(=O)OCC(C)(C)OC)no1 [Compound 359] , please.
2300

Recorded CDMF75 IC15 of O=C(N[C@@H]1CCc2cc(-c3noc(C(F)F)n3)ccc21)c1cc(CO)ccc1F [Compound 663] , please.
2300

Recorded CDMF75 IC15 of Cc1cc(-c2ccc3c(c2)OC[C@H]3NC(=O)c2cnc(C)o2)no1 [Compound 428] , please.
1000

---

target: bovine cardiac myofibrils (full-length cardiac myosin ATPase in the native sarcomere) (Bos taurus (Bovine)); experiment: Skinned bovine cardiac myofibril ATPase assay (PK/LDH-coupled); format: biochemical; conditions: Ca2+ activating to 75% of maximal rate, read-out: CDMF75 IC50
Experimental endpoint: log10(IC50) (log10 of the value in µM)
Hi team, quick reminder: these entries are log10 of IC50 (µM).

Recorded log10(IC50) of "Cc1cc(C(=O)N[C@@H]2COc3cc(-c4cc(C)on4)ccc32)ccn1" , please.
0.51

Recorded log10(IC50) of "Cc1nocc1C(=O)N[C@@H]1CCc2cc(-c3noc(C(F)F)n3)ccc21" , please.
-0.05

Recorded log10(IC50) of "CCc1cc(-c2ccc3c(c2)CC[C@H]3NC(=O)c2ccnn2C)no1" , please.
-0.22

Recorded log10(IC50) of Cc1ccnc(C(=O)NC2CCc3cc(-c4noc(C(F)F)n4)ccc32)c1 (centres unmarked) , please.
0.67

Recorded log10(IC50) of "COCc1nc(-c2ccc3c(c2)OC[C@@H]3NC(=O)c2cc(C)nn2C)no1" , please.
1.59

Recorded log10(IC50) of "CO[C@@H](C)c1nc(-c2ccc3c(c2)CC[C@H]3NC(=O)c2oncc2C)no1" , please.
0.76

Recorded log10(IC50) of "CCc1nc(-c2ccc3c(c2)CC[C@H]3NC(=O)OCC2COC2)no1" , please.
0.34

Recorded log10(IC50) of Cc1nn(C)cc1C(=O)NC1CCc2cc(-c3noc(CO)n3)ccc21 (centres unmarked) , please.
1.36

---

Answer each item with its documented IC50.
Biological target: bovine cardiac myofibrils (full-length cardiac myosin ATPase in the native sarcomere) (Bos taurus (Bovine))
Assay: Skinned bovine cardiac myofibril ATPase assay (PK/LDH-coupled)
Conditions: Ca2+ activating to 75% of maximal rate, read-out: CDMF75 IC50
Description: To evaluate the effect of compounds on the ATPase activity of full-length cardiac myosin in the context of the native sarcomere, skinned myofibril assays were performed. […] Small molecule agents were assessed for their ability to inhibit the steady-state ATPase activity of bovine cardiac myofibrils using pyruvate kinase and lactate dehydrogenase (PK/LDH)-coupled enzyme system. This assay regenerates myosin-produced ADP into ATP by oxidizing NADH, producing an absorbance change at 340 nm. […]
Answer format: numeric, nM implied, no suffix.

Recorded IC50 of CCc1nc(-c2ccc3c(c2)CC[C@H]3NC(=O)c2cnn(CC(O)CO)c2)no1 (some centres unmarked) [Compound 485] , please.
4100

Recorded IC50 of "CCc1nc(-c2ccc3c(c2)CC[C@H]3NC(=O)c2cnn(C3CN(S(C)(=O)=O)C3)c2)no1" , please.
11900

Recorded IC50 of "CCc1nc(-c2ccc3c(c2)CC[C@H]3NC(=O)c2cccc(CO)c2F)no1" , please.
2200

Recorded IC50 of "Cc1nc(C)c(C(=O)N[C@@H]2COc3cc(-c4noc(C(F)F)n4)ccc32)o1" , please.
2100

Recorded IC50 of "Cn1nccc1C(=O)N[C@@H]1CCc2cc(-c3noc(C4(C)CC4)n3)ccc21" , please.
1200

Recorded IC50 of "CCc1nc(-c2ccc3c(c2)CC[C@H]3NC(=O)c2ocnc2C)no1" , please.
800

Recorded IC50 of "CCc1nc(-c2ccc3c(c2)CC[C@H]3NC(=O)c2ccnc(CO)c2)no1" , please.
1300

Recorded IC50 of CCc1nc(-c2ccc3c(c2)CC[C@H]3NC(=O)c2cnco2)no1 [Compound 584] , please.
1200

---

target: bovine cardiac myofibrils (full-length cardiac myosin ATPase in the native sarcomere) (Bos taurus (Bovine), UniProt Q9BE39); test: Skinned bovine cardiac myofibril ATPase assay (PK/LDH-coupled); details: Ca2+ activating to 75% of maximal rate, read-out: CDMF75 IC50
Sequence (Q9BE39 whole entry): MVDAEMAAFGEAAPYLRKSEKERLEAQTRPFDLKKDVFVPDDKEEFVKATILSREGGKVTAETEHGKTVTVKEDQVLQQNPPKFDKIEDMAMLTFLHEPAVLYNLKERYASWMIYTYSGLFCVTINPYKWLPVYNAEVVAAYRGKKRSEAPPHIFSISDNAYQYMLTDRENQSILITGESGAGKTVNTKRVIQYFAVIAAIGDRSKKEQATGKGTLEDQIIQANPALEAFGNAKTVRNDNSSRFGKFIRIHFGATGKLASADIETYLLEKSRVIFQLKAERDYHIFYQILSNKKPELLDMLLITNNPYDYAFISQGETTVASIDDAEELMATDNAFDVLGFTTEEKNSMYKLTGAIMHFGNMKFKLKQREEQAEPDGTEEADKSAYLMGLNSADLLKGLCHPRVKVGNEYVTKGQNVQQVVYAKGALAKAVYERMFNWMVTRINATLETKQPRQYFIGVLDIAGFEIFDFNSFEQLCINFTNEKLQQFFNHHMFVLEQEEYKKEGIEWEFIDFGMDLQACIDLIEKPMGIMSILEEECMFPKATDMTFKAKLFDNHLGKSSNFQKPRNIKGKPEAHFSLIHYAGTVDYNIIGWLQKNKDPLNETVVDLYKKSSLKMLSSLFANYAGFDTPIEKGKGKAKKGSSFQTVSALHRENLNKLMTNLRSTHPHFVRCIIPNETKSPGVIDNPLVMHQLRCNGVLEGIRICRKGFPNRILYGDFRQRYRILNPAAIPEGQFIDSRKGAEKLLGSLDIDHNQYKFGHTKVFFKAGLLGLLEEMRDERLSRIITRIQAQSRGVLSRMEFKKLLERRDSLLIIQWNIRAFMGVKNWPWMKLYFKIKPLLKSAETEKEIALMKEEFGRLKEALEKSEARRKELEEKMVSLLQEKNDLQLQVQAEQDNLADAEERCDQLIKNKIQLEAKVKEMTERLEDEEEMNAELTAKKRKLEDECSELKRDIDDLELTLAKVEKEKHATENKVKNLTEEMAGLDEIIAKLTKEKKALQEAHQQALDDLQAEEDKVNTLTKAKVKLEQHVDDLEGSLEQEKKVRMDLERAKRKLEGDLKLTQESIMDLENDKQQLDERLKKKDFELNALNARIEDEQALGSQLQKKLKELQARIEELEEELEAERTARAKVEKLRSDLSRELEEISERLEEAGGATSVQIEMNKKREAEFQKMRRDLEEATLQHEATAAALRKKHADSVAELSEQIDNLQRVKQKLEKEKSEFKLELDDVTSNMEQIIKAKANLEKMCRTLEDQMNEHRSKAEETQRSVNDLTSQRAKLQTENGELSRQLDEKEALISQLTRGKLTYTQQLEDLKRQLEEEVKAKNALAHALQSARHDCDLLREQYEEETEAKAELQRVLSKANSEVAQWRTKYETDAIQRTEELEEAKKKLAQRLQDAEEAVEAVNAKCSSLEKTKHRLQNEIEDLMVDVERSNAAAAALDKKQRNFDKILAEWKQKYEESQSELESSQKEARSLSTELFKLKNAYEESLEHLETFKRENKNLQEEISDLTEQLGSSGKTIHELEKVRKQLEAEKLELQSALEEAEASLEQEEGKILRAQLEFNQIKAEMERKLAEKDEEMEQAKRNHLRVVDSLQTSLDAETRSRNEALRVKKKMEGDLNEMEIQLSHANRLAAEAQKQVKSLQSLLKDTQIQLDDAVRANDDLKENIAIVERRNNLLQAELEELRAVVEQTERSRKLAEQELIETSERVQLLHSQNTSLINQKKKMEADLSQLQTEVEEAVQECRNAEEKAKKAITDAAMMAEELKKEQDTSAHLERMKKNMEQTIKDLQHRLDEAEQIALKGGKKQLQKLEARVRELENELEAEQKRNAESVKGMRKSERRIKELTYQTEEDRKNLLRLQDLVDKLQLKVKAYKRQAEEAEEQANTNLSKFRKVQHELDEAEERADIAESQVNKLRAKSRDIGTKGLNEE
Sequence (P85100 whole entry partner): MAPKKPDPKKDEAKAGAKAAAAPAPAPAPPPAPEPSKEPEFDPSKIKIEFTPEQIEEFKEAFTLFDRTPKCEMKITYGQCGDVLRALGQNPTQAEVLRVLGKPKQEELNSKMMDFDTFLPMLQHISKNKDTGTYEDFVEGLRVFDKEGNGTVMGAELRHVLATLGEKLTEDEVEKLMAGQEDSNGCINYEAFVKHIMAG
Sequence (Q3SZE5 whole entry partner): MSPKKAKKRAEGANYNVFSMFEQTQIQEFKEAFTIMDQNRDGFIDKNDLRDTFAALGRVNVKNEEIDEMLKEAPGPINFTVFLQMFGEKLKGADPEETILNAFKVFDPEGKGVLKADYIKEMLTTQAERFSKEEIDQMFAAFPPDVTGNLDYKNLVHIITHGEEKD
Answer each item with its documented IC50.
Answer format: numeric, µM implied, no suffix.

Recorded IC50 of "CCc1nc(-c2ccc3c(c2)CC[C@H]3NC(=O)c2cnn(CCO)c2C)no1" , please.
1.8

Recorded IC50 of "[2H]C([2H])([2H])c1nc(-c2ccc3c(c2)OC[C@H]3NC(=O)c2cnc(C)o2)no1" , please.
4.4

Recorded IC50 of "CCc1nc(-c2ccc3c(c2)CC[C@H]3NC(=O)c2cn[nH]c2OC)no1" , please.
24.3

Recorded IC50 of "CC(C)c1nc(-c2ccc3c(c2)CC[C@H]3NC(=O)c2nnn(C)n2)no1" , please.
2.4

Recorded IC50 of "CCc1cc(-c2ccc3c(c2)OC[C@H]3NC(=O)c2ccnc(C)c2)no1" , please.
1.2

Recorded IC50 of "Cc1ncc(C(=O)N[C@@H]2CCc3cc(-c4nc(C(F)F)no4)ccc32)o1" , please.
12.4

---

Answer each item with its documented CDMF75 IC15.
molecular target: bovine cardiac myofibrils (full-length cardiac myosin ATPase in the native sarcomere) (Bos taurus (Bovine)); assay: Skinned bovine cardiac myofibril ATPase assay (PK/LDH-coupled); type: biochemical; settings: Ca2+ activating to 75% of maximal rate, concentration giving 15% inhibition
Answer format: numeric, µM implied, no suffix.

Recorded CDMF75 IC15 of Cc1cc(C(=O)NC2CCc3cc(-c4noc(C)n4)ccc32)n(C)n1 (stereo not shown) , please.
1.4

Recorded CDMF75 IC15 of "CCc1nc(-c2ccc3c(c2)CC[C@H]3NC(=O)c2cnn(CC3(C)COC3)c2)no1" , please.
32.6

Recorded CDMF75 IC15 of "[2H]C([2H])([2H])c1nc(-c2ccc3c(c2)CC[C@H]3NC(=O)c2ccnc(C)c2)no1" , please.
1.0

Recorded CDMF75 IC15 of "Cn1nnc(C(=O)N[C@@H]2CCc3cc(-c4nc(C5CC5)no4)ccc32)n1" , please.
0.4
